RESULT TYPE: melting point

Example results:
• O=C1[C@H]2CCC[C@H]2N(C(=O)CBr)c2ccccc2N1Cc1ccc([N+](=O)[O-])cc1 (relative stereo) = 160 to 162 °C
• Cc1ccc(CC2CNC(=O)O2)cc1 (stereo unspecified) = 144 to 146 °C
• CCOC(=O)c1ncn2c1CN(C)C(=O)c1cc(C#N)ccc1-2 = 184 °C

Quick one: melting point of CC(C)(C)c1cc(Cn2nc(CCCCc3nn(Cc4cc(C(C)(C)C)c(O)c(C(C)(C)C)c4)c(=O)o3)oc2=O)cc(C(C)(C)C)c1O ?
190 °C

Which melting point is reported for this compound? CCCC(=O)OCC(=O)C1C(C)CC2C3=C(C(O)CC21C)C1(C)C=CC(=O)C=C1C(F)C3 (stereo unspecified)
112 °C

Sample O=C(Nc1ccccc1)c1cccc(Oc2cccc(C(F)(F)F)c2)n1 — what was its melting point?
92 to 93 °C

Using the record for COc1ccc(Oc2ccc(C(=O)CC(SC(C)=O)C(=O)O)cc2)cc1 (stereo unspecified) , report its melting point.
110 to 111 °C

Which melting point value belongs to O=c1c(Cc2cccnc2)cn2c3cc(F)ccc3c3cc(OCCCO)cc1c32 ?
204 to 209 °C

Suppose we examine the compound COc1ccc(CCN(C)CCCCc2ccc(NC(=O)c3cccc4c(=O)c5ccccc5oc34)cc2)cc1OC ; what melting point value has been reported?
102 °C

melting point for CCN1Cn2c(=O)cc(-c3cccc(C(F)(F)F)c3)n3cnc(c23)C1=O ?
278 to 280 °C

Form field: reported melting point of CCCCC1=NC2(CCCC2)C(=O)N1Cc1ccc(-c2ccccc2S(=O)(=O)Nc2noc(C)c2C)c(COCCF)c1
68 to 73 °C
